# Test system: H. pylori ATCC 51932
# TEST_DETAILS: Broth dilution bioassay MIC/MBC, ATCC 51932
# Assay type: cell-based
# MEASUREMENT_PARAMETERS: Helicobacter pylori, ATCC51932, 72 h
Recorded MBC by entry

>  <CHEMICAL_STRUCTURE>
C[C@H]1COc2c(N3CCN(C)CC3)c(F)cc3c(=O)c(C(=O)O)cn1c23

>  <UNITS_SYMBOL>
µg/mL

>  <MBC>
0.25

$$$$
>  <CHEMICAL_STRUCTURE>
O=c1c(O)c(-c2cc(O)c(O)c(O)c2)oc2cc(O)cc(O)c12

>  <UNITS_SYMBOL>
µg/mL

>  <MBC>
1250

$$$$
>  <CHEMICAL_STRUCTURE>
O=c1cc(-c2ccc(O)c(O)c2)oc2cc(O)cc(O)c12

>  <UNITS_SYMBOL>
µg/mL

>  <MBC>
1250

$$$$
